Target: T1, PABP1(J), the PABC domain of Leishmania major PABP1 prepared as segment J (Leishmania major, UniProt E9AFX7 482-560)
T1 construct: 15N,13C-labelled form used in NMR; also called PABP1 PABC domain; PABC1; source: E. coli NiCo21(DE3), synthetic reading frame, purified (cobalt IDA resin, gel filtration); also co-expressed with eIF4E4(v) from a dual expression plasmid
T1 sequence: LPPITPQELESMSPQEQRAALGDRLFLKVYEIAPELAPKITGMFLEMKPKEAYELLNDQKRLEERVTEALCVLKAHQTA
Assay: MST; FITC-labelled synthetic 14mer peptides with PABP1(J)
Conditions: both partners purified
Ends that are not written are not given here.
Reported Kd by item:
Just the number please, in nM, no unit attached.

// known answers, use as guide
binder | reported.measurement
HHMNPNATEAMPGR (also: FITC label, also called F147A mutant peptide; source: synthetic peptide (Thermo Fisher Scientific, HPLC-purified to 98%)) [eIF4E4 PAM2-motif FITC-labelled 14mer peptide, F147A] | 127
HHANPNATEFMPGR (also: FITC label, source: synthetic peptide (Thermo Fisher Scientific, HPLC-purified to 98%)) [eIF4E4 PAM2-motif FITC-labelled 14mer peptide, M140A] | 34.3
HHMNPNATEFAPGR (also: FITC label, source: synthetic peptide (Thermo Fisher Scientific, HPLC-purified to 98%)) [eIF4E4 PAM2-motif FITC-labelled 14mer peptide, M148A] | 62.8
HHMNPNATAFMPGR (also: FITC label, source: synthetic peptide (Thermo Fisher Scientific, HPLC-purified to 98%)) [eIF4E4 PAM2-motif FITC-labelled 14mer peptide, E146A] | 163

[in] Query: Kd; subject: HHMNPNATEFMPGR (also: FITC label, also called 'wild-type' peptide; 14mer eIF4E4 peptide; source: synthetic peptide (Thermo Fisher Scientific, HPLC-purified to 98%)) [eIF4E4 PAM2-motif FITC-labelled 14mer peptide, WT]
[out] 33

[in] Query: Kd; subject: HHMNPAATEFMPGR (also: FITC label, source: synthetic peptide (Thermo Fisher Scientific, HPLC-purified to 98%)) [eIF4E4 PAM2-motif FITC-labelled 14mer peptide, N143A]
[out] 69.2
